# Measurement context: 25 °C
Outcome: 1 (yes) for solubility of at least 0.6 mM; 0 (no) for anything lower.

Brc1ccc(Br)cc1 = 0 (no)
O=C(O)c1ccnc(C(=O)O)c1 = 1 (yes)
ClCBr = 1 (yes)
Cc1cc(=O)[nH]o1 = 1 (yes)
C=C(C)CCC = 1 (yes)
FC(F)(F)C(F)(F)F = 0 (no)
C=CCCCC=C = 0 (no)
CCCCC=O = 1 (yes)

Inquiry: Dear colleague, could you confirm whether Cc1ccc2ccccc2c1 has solubility at or above 0.6 mM?
Reply text: 0 (no)

Inquiry: Dear colleague, could you confirm whether Cc1ccccc1O has solubility at or above 0.6 mM?
Reply text: 1 (yes)

Inquiry: Dear colleague, could you confirm whether CCC(C)(C)c1ccccc1 has solubility at or above 0.6 mM?
Reply text: 0 (no)

Inquiry: Dear colleague, could you confirm whether CCC(C)c1cc([N+](=O)[O-])cc([N+](=O)[O-])c1OC(C)=O (configuration not stated) has solubility at or above 0.6 mM?
Reply text: 1 (yes)

Inquiry: Dear colleague, could you confirm whether c1ccc2c(c1)Nc1ccccc1S2 has solubility at or above 0.6 mM?
Reply text: 0 (no)

Inquiry: Dear colleague, could you confirm whether CCC1NC(=O)c2cc(S(N)(=O)=O)c(Cl)cc2N1 (configuration not stated) has solubility at or above 0.6 mM?
Reply text: 0 (no)

Inquiry: Dear colleague, could you confirm whether Cc1cnc2c(ccc3c(C)c(C)cnc32)c1C has solubility at or above 0.6 mM?
Reply text: 0 (no)

Inquiry: Dear colleague, could you confirm whether CCOP(=S)(OCC)O/N=C(\C#N)c1ccccc1 has solubility at or above 0.6 mM?
Reply text: 0 (no)

Inquiry: Dear colleague, could you confirm whether CCOC(=O)c1c[nH]c(=S)[nH]c1=O has solubility at or above 0.6 mM?
Reply text: 1 (yes)

Inquiry: Dear colleague, could you confirm whether COC(=O)C(=O)OC has solubility at or above 0.6 mM?
Reply text: 1 (yes)

Inquiry: Dear colleague, could you confirm whether Cc1cccc2sc3nncn3c12 has solubility at or above 0.6 mM?
Reply text: 1 (yes)

Inquiry: Dear colleague, could you confirm whether Clc1ccc(Br)cc1 has solubility at or above 0.6 mM?
Reply text: 0 (no)

Inquiry: Dear colleague, could you confirm whether c1ccsc1 has solubility at or above 0.6 mM?
Reply text: 1 (yes)

Inquiry: Dear colleague, could you confirm whether C=C(C)C has solubility at or above 0.6 mM?
Reply text: 1 (yes)

Inquiry: Dear colleague, could you confirm whether O=C(O)c1cccc(Cl)c1[N+](=O)[O-] has solubility at or above 0.6 mM?
Reply text: 1 (yes)

Inquiry: Dear colleague, could you confirm whether C1CCCNCC1 has solubility at or above 0.6 mM?
Reply text: 1 (yes)

Inquiry: Dear colleague, could you confirm whether CC(C)(C)CC(=O)OCC(=O)[C@@]1(O)CC[C@H]2[C@@H]3CCC4=CC(=O)CC[C@]4(C)[C@H]3[C@@H](O)C[C@@]21C has solubility at or above 0.6 mM?
Reply text: 0 (no)

Inquiry: Dear colleague, could you confirm whether CCCCCBr has solubility at or above 0.6 mM?
Reply text: 1 (yes)

* * *

# Measurement context: 20 °C
Outcome: Yes for solubility of at least 9 mM; No for anything lower.

Look over these answered cases.
Clc1ccc(Cl)c(-c2cc(Cl)c(Cl)c(Cl)c2Cl)c1 = No
Clc1ccc(-c2ccc(Cl)c(Cl)c2)c(Cl)c1 = No
CCC(C)N (configuration not stated) = Yes

Inquiry: Dear colleague, could you confirm whether CC(C)CNC(=O)N1CCNC1=O has solubility at or above 9 mM?
Reply text: No

Inquiry: Dear colleague, could you confirm whether O=[N+]([O-])c1cc(Cl)c(Cl)cc1Cl has solubility at or above 9 mM?
Reply text: No

Inquiry: Dear colleague, could you confirm whether Nc1cnn(-c2ccccc2)c(=O)c1Br has solubility at or above 9 mM?
Reply text: No

Inquiry: Dear colleague, could you confirm whether CC(Cl)[N+](=O)[O-] (configuration not stated) has solubility at or above 9 mM?
Reply text: Yes

Inquiry: Dear colleague, could you confirm whether Cc1cccc(N)c1 has solubility at or above 9 mM?
Reply text: Yes

Inquiry: Dear colleague, could you confirm whether N[C@@H](CSSC[C@H](N)C(=O)O)C(=O)O has solubility at or above 9 mM?
Reply text: No

Inquiry: Dear colleague, could you confirm whether C[C@H](CCC(=O)NCC(=O)O)[C@H]1CC[C@H]2[C@@H]3[C@H](O)C[C@@H]4C[C@H](O)CC[C@]4(C)[C@H]3C[C@H](O)[C@]12C has solubility at or above 9 mM?
Reply text: No

Inquiry: Dear colleague, could you confirm whether c1ncc2nc[nH]c2n1 has solubility at or above 9 mM?
Reply text: Yes

Inquiry: Dear colleague, could you confirm whether CCOC(=O)C(c1c(O)c2ccccc2oc1=O)c1c(O)c2ccccc2oc1=O has solubility at or above 9 mM?
Reply text: No

Inquiry: Dear colleague, could you confirm whether CNc1ccccc1C(=O)O has solubility at or above 9 mM?
Reply text: No

Inquiry: Dear colleague, could you confirm whether C[C@@]12C(=O)OC(=O)[C@]1(C)C1CCC2O1 has solubility at or above 9 mM?
Reply text: No

Inquiry: Dear colleague, could you confirm whether Nc1ccccc1C(=O)O has solubility at or above 9 mM?
Reply text: Yes

Inquiry: Dear colleague, could you confirm whether CC(C)(S)[C@@H](N)C(=O)O has solubility at or above 9 mM?
Reply text: Yes

Inquiry: Dear colleague, could you confirm whether Oc1cc(O)ncn1 has solubility at or above 9 mM?
Reply text: Yes

* * *

# Measurement context: 22 °C
Reported endpoint: log10(solubility) (log10 of the value in mM)
Response schema: value (number) is log10 of solubility in units of mM.

// solved cases for log10(solubility) follow
O=C(c1ccccc1)c1c(O)cc(O)cc1O = 1.13
C1CCN2C[C@@H]3C[C@@H](CN4CCCC[C@@H]34)[C@H]2C1 = 1.11
OCc1ccccc1O = 2.71

Inquiry: Tell me measured log10(solubility) for OC[C@@H](O)[C@@H](O)CO please.
Reply text: 3.70

Inquiry: Tell me measured log10(solubility) for COC(=O)[C@@H]1C2CCC(C[C@@H]1OC(=O)c1ccccc1)N2C (some centres not stated) please.
Reply text: 0.77

Inquiry: Tell me measured log10(solubility) for Cc1cc(=O)[nH]c(=O)[nH]1 please.
Reply text: 1.74

Inquiry: Tell me measured log10(solubility) for CCCC(C)C(=O)Nc1ccc(C)c(Cl)c1 (configuration not stated) please.
Reply text: -1.45

Inquiry: Tell me measured log10(solubility) for COC(=O)NS(=O)(=O)c1ccc(N)cc1 please.
Reply text: 1.34

* * *

# Measurement context: 25 °C
Listed below: solubility values for each entry.
Express the result in mM but write the number alone.

// solved cases for solubility follow
Clc1cccc(Cl)c1-c1c(Cl)cccc1Cl = 4.08e-05
Fc1ccccc1CCl = 2.88
Cc1ccc(S(N)(=O)=O)cc1 = 18.4
CC(=O)O[C@]1(C(C)=O)CC[C@H]2[C@@H]3C=C(Cl)C4=CC(=O)C=C[C@]4(C)[C@H]3CC[C@@]21C = 0.0113
CCCC(C)O (stereo not given) = 506

Inquiry: Tell me measured solubility for O=C(O)COc1ccccc1Cl please.
Reply text: 6.86

Inquiry: Tell me measured solubility for C#CC(C)(C)NC(=O)c1cc(Cl)cc(Cl)c1 please.
Reply text: 0.0586

Inquiry: Tell me measured solubility for C=CCC1(C(C)CCC)C(=O)NC(=S)NC1=O (stereo not given) please.
Reply text: 0.348

Inquiry: Tell me measured solubility for Cc1ccc(C)c(O)c1 please.
Reply text: 29

Inquiry: Tell me measured solubility for CCCC(=O)CCC please.
Reply text: 28

* * *

# Measurement context: 25 °C
Class membership depends on solubility alone; the intervals are A (below 0.05 mM), B (0.05 mM to below 6 mM), C (6 mM or more)

Look over these answered cases.
CCC(C)(C)CC = B
CCCCCCCCCCCCCCCCCC = A
CC(C)CC(C)C = B
CC(C)CC(C)(C)C = A
O=C(O)COc1ccc(Cl)c(Cl)c1 = B
CC=CC(C)O (centres undefined) = C
Cc1cccc(C)c1NC(=O)c1cc(S(N)(=O)=O)c(Cl)cc1O = B
Fc1ccc(I)cc1 = B
CCC(C)(C)C = B
CCCCCCCC = A

Inquiry: Kindly identify the class of C1=CC=CCC=C1 .
Reply text: C

* * *

# Measurement context: 25 °C
Class membership depends on solubility alone; the intervals are zone 1 (below 0.1 mM), zone 2 (0.1 mM to below 60 mM), zone 3 (60 mM or more)

Look over these answered cases.
O=C(O)c1cccc(F)c1 = zone 2
C1CCC2CCCCC2C1 (stereo not drawn) = zone 1
CC(=O)OCC(=O)[C@@]1(O)CC[C@H]2[C@@H]3CCC4=CC(=O)CC[C@]4(C)[C@H]3C(=O)C[C@@]21C = zone 1
S=C=NCc1ccccc1 = zone 2
CCCCCO = zone 3

Pending molecule:
Inquiry: Kindly identify the class of Clc1cc(Cl)c(-c2c(Cl)cc(Cl)cc2Cl)c(Cl)c1 .
Reply text: zone 1
